# Measured on: T1, CD47 protein (Acrobiosystems, cat #CD7-HA2E9) (UniProt Q08722 19-139)
# T1 construct: Bought recombinant protein coated on the ELISA plate at 100 ng/well; also called CD47 antigen; CD47 peptide
# Experimental details: ELISA, CD47 protein coated 100 ng/well, 0.8 µg antibody per well
Reported OD450 measurements values are given for each entry in this list.
Respond with the figure and its unit, in that order.

Data request, read-out OD450 measurements, for Hu3A5(V15) antibody (antibody, V domains shown) VH: QVQLVQSGSELKKPGASVKVSCKASGYTFTSYWMNWVRQAPGQGLEWMGVIDPSDSYTSYNQGFTGRFVFSVDTSVSTAYLQISSLKAEDTAVYYCARGGKRAMDYWGQGTTVTVSS VL: DVVMTQSPDSLAVSLGERATINCKSSQSLVHSNGNTYLHWYQQKPGQPPKLLIYKVSNRFSGVPDRFSGSGSGTDFTLTISSLQAEDVAVYFCSQSTHVPFTFGGGTKLEIK 0.111 OD450

Values compiled from patent US20250129155A1.
